Tested on: Achromobacter xylosoxidans
Assay: Activity of Achromobacter xylosoxidans CIP69598 beta-lactamase OXA-114a expressed in Escherichia coli TOP10 assessed as compound hydrolysis
Overview of reported kcat across a group of compounds:

Below: 2 compounds and their reported kcat.
CO[C@@]1(NC(=O)Cc2cccs2)C(=O)N2C(C(=O)O)=C(COC(N)=O)CS[C@@H]21 | < 0.01 s⁻¹
C[C@@H](O)[C@H]1C(=O)N2C(C(=O)O)=C(SCCNC=N)C[C@H]12 [IMIPENEM ANHYDROUS] | > 0.1 s⁻¹

Cc1onc(-c2ccccc2)c1C(=O)N[C@@H]1C(=O)N2[C@@H]1SC(C)(C)[C@@H]2C(=O)O has a reported kcat of < 0.01 s⁻¹

Lookup result for CO/N=C(\C(=O)N[C@@H]1C(=O)N2C(C(=O)O)=C(COC(C)=O)CS[C@H]12)c1csc(N)n1 ; measured kcat: < 0.01 s⁻¹

Please fill in: kcat reported for CC(C)(O/N=C(\C(=O)N[C@@H]1C(=O)N2C(C(=O)[O-])=C(C[n+]3ccccc3)CS[C@H]12)c1csc(N)n1)C(=O)O = < 0.01 s⁻¹
